What IC50 was measured for each of the following?
- MEASUREMENT TARGET: UniProt:P27338
- Sequence (P27338 1-520): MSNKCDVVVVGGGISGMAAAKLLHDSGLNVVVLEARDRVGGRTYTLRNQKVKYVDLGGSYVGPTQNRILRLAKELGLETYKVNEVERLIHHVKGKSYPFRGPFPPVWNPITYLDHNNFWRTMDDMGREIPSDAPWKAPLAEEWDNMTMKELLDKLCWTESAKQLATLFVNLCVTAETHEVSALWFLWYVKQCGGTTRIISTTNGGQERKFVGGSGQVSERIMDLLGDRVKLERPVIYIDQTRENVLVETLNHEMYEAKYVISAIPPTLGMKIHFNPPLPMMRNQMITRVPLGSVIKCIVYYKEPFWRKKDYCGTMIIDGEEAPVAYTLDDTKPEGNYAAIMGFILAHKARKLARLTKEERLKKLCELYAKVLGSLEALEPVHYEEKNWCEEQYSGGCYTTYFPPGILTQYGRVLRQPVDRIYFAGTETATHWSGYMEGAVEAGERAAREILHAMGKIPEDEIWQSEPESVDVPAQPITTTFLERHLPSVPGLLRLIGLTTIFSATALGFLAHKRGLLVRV
- EXPERIMENTAL DETAILS: ROS Glo based MAO-B enzyme activity assay
- Format: biochemical
- CONDITION PARAMETERS: read-out: IC50, MAO-B assay, ROS-Glo method
- Procedure: An enzyme solution was prepared by diluting 10 µL of a 2.5 mg/mL MAO-A or MAO-B stock in 10 mL of 50 mM sodium phosphate buffer (pH 7.4). A substrate solution was prepared by diluting 200 µL of a 100 mM benzylamine (or tyramine) stock in 10 mL phosphate buffer to achieve a final concentration of 1 mM. […] Luminescence was subsequently recorded using a microplate luminescence reader (SpectraMax i3, Molecular Devices).
One number for each entry, in µM.

| COMPOUND | IC50 [µM] |
| --- | --- |
| CC1(C)C=Cc2c(ccc3c2OC[C@@H](c2ccc(O)cc2O)C3)O1 | 15.4 |

# input for lookup
Request body: readout IC50, system UniProt:P27338, query CCOc1ccc(C2COc3c(ccc4c3CCC(C)(C)O4)C2)c(O)c1 (centres unmarked) . Return the value.
58.3

---

- EXPERIMENTAL DETAILS: Quantification of drug concentration in plasma and brain of mice (LC-MS/MS)
- Assay type: in vivo, C57BL/6J mice
- CONDITION PARAMETERS: male, C57BL/6J, plasma; mouse, single oral 50 mg/kg; read-out: AUC24h in plasma
MEASURED QUANTITY: AUC(0-t) (ng·h/mL)
One number for each entry, in ng·h/mL.

Find the recorded AUC(0-t) belonging to CCOc1ccc(C2COc3c(ccc4c3CCC(C)(C)O4)C2)c(O)c1 (stereo not shown) and report it.
16100

---

- EXPERIMENTAL DETAILS: Quantification of drug concentration in plasma and brain of mice (LC-MS/MS)
- Type: in vivo, C57BL/6J mice
- CONDITION PARAMETERS: male, C57BL/6J, brain; mouse, single oral 50 mg/kg, at Tmax of 6 h; read-out: concentration in brain
- Procedure: Male C57BL/6J mice (8 weeks old, n = 24, non-fasted; Charles River Japan (CRJ), OrientBio, Seongnam, Korea) were dosed with 50 mg/kg of Vuti once and sacrificed at 0, 1, 2, 4, 6, 8, 10, 24 h time point (n = 3 per time point). […] Vuti was quantified in both plasma and brain samples using LC-MS/MS analysis. […] LC-MS/MS analysis to quantify Vuti used previously set conditions. […]
MEASURED QUANTITY: concentration at 6 h (ng/g)
Answers are plain numbers, in ng/g.

Need concentration at 6 h of CCOc1ccc(C2COc3c(ccc4c3CCC(C)(C)O4)C2)c(O)c1 (stereo not shown) , thanks.
4030

---

- EXPERIMENTAL DETAILS: Quantification of drug concentration in plasma and brain of mice (LC-MS/MS)
- Format: in vivo, C57BL/6J mice
- CONDITION PARAMETERS: male, C57BL/6J, brain / plasma; mouse, single oral 50 mg/kg; read-out: brain relative to plasma by AUC24h
MEASURED QUANTITY: Kp
Give bare numbers.

Look up Kp: CCOc1ccc(C2COc3c(ccc4c3CCC(C)(C)O4)C2)c(O)c1 (stereo not shown)
2.6

---

- EXPERIMENTAL DETAILS: Quantification of drug concentration in plasma and brain of mice (LC-MS/MS)
- Assay type: in vivo, C57BL/6J mice
- CONDITION PARAMETERS: male, C57BL/6J, plasma; mouse, single oral 50 mg/kg, at Tmax of 6 h; read-out: concentration in plasma
MEASURED QUANTITY: concentration at 6 h (ng/mL)
One number for each entry, in ng/mL.

What measured concentration at 6 h goes with CCOc1ccc(C2COc3c(ccc4c3CCC(C)(C)O4)C2)c(O)c1 (stereo not shown) [Vuti, Vutiglabridin] ?
1490

---

I'd appreciate it if you could supply pIC50 values for the items below.
- MEASUREMENT TARGET: MAO-A (Homo sapiens, UniProt P21397)
- Sequence (P21397 1-527): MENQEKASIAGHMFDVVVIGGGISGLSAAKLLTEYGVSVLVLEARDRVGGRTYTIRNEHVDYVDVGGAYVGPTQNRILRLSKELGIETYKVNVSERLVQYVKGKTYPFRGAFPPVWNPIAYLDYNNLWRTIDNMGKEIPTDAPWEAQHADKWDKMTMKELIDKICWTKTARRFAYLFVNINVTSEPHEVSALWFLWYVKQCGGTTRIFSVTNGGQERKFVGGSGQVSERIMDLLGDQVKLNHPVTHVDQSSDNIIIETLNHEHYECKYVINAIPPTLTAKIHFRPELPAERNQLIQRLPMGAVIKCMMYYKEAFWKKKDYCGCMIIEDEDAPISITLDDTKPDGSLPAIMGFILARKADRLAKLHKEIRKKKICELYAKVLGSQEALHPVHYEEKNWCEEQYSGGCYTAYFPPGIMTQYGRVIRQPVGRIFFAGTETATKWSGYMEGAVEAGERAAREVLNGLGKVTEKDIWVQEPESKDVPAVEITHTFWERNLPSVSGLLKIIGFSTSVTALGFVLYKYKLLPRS
- EXPERIMENTAL DETAILS: ROS Glo based MAO-A enzyme activity assay
- Assay type: biochemical
- CONDITION PARAMETERS: printed as 'separate MAO-B assay' within the MAO-A panel (b); read-out: IC50, ROS-Glo method, panel (b)
Numbers only, as −log10 of the molar value.

| COMPOUND | MEASUREMENT TARGET | pIC50 |
| --- | --- | --- |
| CCOc1ccc(C2COc3c(ccc4c3CCC(C)(C)O4)C2)c(O)c1 (centres unmarked) [Vuti, Vutiglabridin] | MAO-A (Homo sapiens, UniProt P21397) | 4.61 |

Turning now to a further compound:
Report pIC50 for CC1(C)C=Cc2c(ccc3c2OC[C@@H](c2ccc(O)cc2O)C3)O1 [Glabridin] please.
4.92

---

- Tested on: primary cultured astrocytes
- EXPERIMENTAL DETAILS: Intracellular H2O2 (oROS-G sensor) in 6-OHDA-treated astrocytes
- Type: cell-based
- CONDITION PARAMETERS: Astrocyte; 6-OHDA 10 µM treated primary cultured astrocytes, Vuti 1, 10, 30 µM; read-out: normalized IC50 (ROS, oROS-G sensor imaging)
- Protocol: Intracellular H2O2 levels in astrocytes were measured using a genetically encoded oROS-G plasmid, which is highly sensitive and specific for H2O2 with rapid on-and-off kinetics. […] Fluorescence changes were monitored using a Nikon A1 confocal microscope over a period of 21 h for live cell imaging. The fluorescence intensity for each region of interest (ROI) was analyzed using Nikon software, and the data were normalized to control values for the IC50. […]
MEASURED QUANTITY: pIC50
One number for each entry, as −log10 of the molar value.

Dear colleague, I am looking for the recorded pIC50 of the following molecule: CCOc1ccc(C2COc3c(ccc4c3CCC(C)(C)O4)C2)c(O)c1 (stereo not shown)
4.68

---

- EXPERIMENTAL DETAILS: Quantification of drug concentration in plasma and brain of mice (LC-MS/MS)
- Assay type: in vivo, C57BL/6J mice
- CONDITION PARAMETERS: male, C57BL/6J, plasma; mouse, single oral 50 mg/kg
MEASURED QUANTITY: Tmax (h)
Give bare numbers, in h.

Report Tmax for CCOc1ccc(C2COc3c(ccc4c3CCC(C)(C)O4)C2)c(O)c1 (stereo not shown) [Vuti, Vutiglabridin] please.
6

---

- MEASUREMENT TARGET: MAO-A (Homo sapiens, UniProt P21397)
- Sequence (P21397 1-527): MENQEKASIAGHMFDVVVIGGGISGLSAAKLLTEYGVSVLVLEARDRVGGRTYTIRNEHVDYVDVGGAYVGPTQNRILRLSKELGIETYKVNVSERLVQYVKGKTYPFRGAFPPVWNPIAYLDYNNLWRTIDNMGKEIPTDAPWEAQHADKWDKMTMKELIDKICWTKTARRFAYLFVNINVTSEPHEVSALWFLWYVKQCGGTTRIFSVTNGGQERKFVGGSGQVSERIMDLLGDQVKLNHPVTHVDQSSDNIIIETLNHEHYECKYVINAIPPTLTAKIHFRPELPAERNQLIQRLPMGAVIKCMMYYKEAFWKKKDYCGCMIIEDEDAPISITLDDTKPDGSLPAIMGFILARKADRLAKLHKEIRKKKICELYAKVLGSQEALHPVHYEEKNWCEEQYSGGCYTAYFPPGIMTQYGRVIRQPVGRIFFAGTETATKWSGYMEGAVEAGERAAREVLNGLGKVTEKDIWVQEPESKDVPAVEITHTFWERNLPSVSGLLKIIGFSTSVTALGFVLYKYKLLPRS
- EXPERIMENTAL DETAILS: HRP/Amplex red based MAO-A enzyme activity assay
- Type: biochemical
- CONDITION PARAMETERS: read-out: IC50, MAO-A assay, HRP/AR method
Consider the following compounds; for each one, report its IC50.
One number for each entry, in µM.

| COMPOUND | MEASUREMENT TARGET | MEASURED QUANTITY | UNITS OF MEASURE | VALUE REPORTED |
| --- | --- | --- | --- | --- |
| CCOc1ccc(C2COc3c(ccc4c3CCC(C)(C)O4)C2)c(O)c1 (centres unmarked) [Vuti, Vutiglabridin] | MAO-A (Homo sapiens, UniProt P21397) | IC50 | µM | 288 |

Please examine the following record next.
Quick one: IC50 for CC1(C)C=Cc2c(ccc3c2OC[C@@H](c2ccc(O)cc2O)C3)O1 [Glabridin] ?
26.8
